Collected log10 of EC50 values appear next to each entry.
experimental-target: Peroxisome proliferator-activated receptor gamma (Homo sapiens)
Sequence (P37231 whole entry): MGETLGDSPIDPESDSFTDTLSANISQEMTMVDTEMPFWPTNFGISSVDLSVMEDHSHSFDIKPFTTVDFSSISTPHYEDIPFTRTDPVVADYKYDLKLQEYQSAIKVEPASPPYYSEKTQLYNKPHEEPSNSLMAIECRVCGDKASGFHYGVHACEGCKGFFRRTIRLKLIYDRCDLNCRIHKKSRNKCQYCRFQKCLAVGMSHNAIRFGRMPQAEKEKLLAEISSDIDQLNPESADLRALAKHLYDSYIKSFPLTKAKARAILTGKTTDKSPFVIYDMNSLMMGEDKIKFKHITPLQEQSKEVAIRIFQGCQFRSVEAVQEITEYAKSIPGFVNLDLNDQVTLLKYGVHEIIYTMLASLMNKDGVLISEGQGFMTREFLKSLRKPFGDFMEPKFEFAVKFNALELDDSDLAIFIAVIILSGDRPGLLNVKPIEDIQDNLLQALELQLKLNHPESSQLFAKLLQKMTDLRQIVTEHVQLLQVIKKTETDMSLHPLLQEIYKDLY
experiment-notes: Agonist activity at PPARgamma expressed in human HCA7 cells assessed as induction of peroxisome proliferator response element after 12 hrs by luciferase reporter assay
Scale type: logarithmic (base 10). Underlying EC50 unit: nM.

Recorded log10 of EC50, per entry:
O=C(O)CC1=C/C(=C\c2ccc(F)c3ccccc23)c2ccc(F)cc21 :: 2.00
CSc1ccc(/C=C2\C=C(CC(=O)O)c3cc(F)ccc32)cc1 :: 2.85
O=C(O)CC1=C/C(=C\c2ccc(SC(F)(F)F)cc2)c2ccc(F)cc21 :: 2.30
O=C(O)CC1=C/C(=C\c2ccc(-c3ccccc3)cc2)c2ccc(F)cc21 :: 2.00
O=C(O)CC1=C/C(=C\c2cccc3ccccc23)c2ccc(F)cc21 :: 2.00
COc1ccc(/C=C2\C=C(CC(=O)O)c3cc(F)ccc32)cc1 :: 3.11
Cc1ccc(/C=C2\C=C(CC(=O)O)c3cc(F)ccc32)cc1 :: 3.38
O=C(O)CC1=C/C(=C\c2ccc3ccccc3c2)c2ccc(F)cc21 :: 3.08

Request: # query: log10 of EC50 of entry O=C(O)CC1=C/C(=C\c2ccc(Br)cc2)c2ccc(F)cc21
Response: 3.04

Request: # query: log10 of EC50 of entry O=C(O)CC1=C/C(=C\c2ccccc2)c2ccc(F)cc21
Response: 3.23

Request: # query: log10 of EC50 of entry [N-]=[N+]=NCc1ccc(/C=C2\C=C(CC(=O)O)c3cc(F)ccc32)cc1
Response: 2.95

Request: # query: log10 of EC50 of entry CC(C)(C)Oc1ccc(/C=C2\C=C(CC(=O)O)c3cc(F)ccc32)cc1
Response: 3.28

Request: # query: log10 of EC50 of entry C#Cc1ccc(/C=C2\C=C(CC(=O)O)c3cc(F)ccc32)cc1
Response: 3.04

Request: # query: log10 of EC50 of entry O=C(O)CC1=C/C(=C\c2cccc3cccnc23)c2ccc(F)cc21
Response: 3.18

Request: # query: log10 of EC50 of entry O=C(O)CC1=C/C(=C\c2ccc(-c3ccc(F)cc3F)cc2)c2ccc(F)cc21
Response: 2.00

Request: # query: log10 of EC50 of entry O=C(O)CC1=C/C(=C\c2ccc(C(F)(F)F)cc2)c2ccc(F)cc21
Response: 3.40

Request: # query: log10 of EC50 of entry CSc1ccc(-c2ccc(/C=C3\C=C(CC(=O)O)c4cc(F)ccc43)cc2)cc1
Response: 3.18

* * *

experimental-target: Prostaglandin G/H synthase 1 (Homo sapiens) (UniProt P23219)
Sequence (P23219 whole entry): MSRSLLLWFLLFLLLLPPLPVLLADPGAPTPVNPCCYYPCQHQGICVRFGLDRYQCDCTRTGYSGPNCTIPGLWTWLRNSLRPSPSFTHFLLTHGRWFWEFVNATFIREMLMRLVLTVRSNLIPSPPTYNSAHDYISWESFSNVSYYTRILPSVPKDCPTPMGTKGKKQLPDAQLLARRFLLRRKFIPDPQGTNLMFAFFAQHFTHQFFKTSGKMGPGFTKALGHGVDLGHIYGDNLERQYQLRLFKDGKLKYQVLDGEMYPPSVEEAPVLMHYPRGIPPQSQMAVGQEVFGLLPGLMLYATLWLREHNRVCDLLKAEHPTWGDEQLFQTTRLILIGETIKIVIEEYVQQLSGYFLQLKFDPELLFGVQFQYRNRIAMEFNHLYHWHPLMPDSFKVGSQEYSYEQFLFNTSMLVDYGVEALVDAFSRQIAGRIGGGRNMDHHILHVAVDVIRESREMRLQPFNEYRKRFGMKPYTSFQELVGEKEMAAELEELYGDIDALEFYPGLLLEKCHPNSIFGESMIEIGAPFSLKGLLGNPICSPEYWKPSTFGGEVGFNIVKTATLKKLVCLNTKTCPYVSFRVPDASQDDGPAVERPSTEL
experiment-notes: Inhibition of cyclooxygenase 1 upto 4 uM
The source made the active and inactive calls. The rule behind the calls is not given here.
endpoint-label: Activity

O=C(O)CC1=C/C(=C\c2cccc3ccccc23)c2ccc(F)cc21 :: inactive
O=C(O)CC1=C/C(=C\c2ccc(F)c3ccccc23)c2ccc(F)cc21 :: inactive
O=C(O)CC1=C/C(=C\c2ccccc2)c2ccc(F)cc21 :: inactive
